# protocol.text: Selectivity index, ratio of IC50 for human MRC5 cells to IC50 for human T98G cells
# Assay type: toxicity
# run.parameters: MRC5 cells and T98G cells, read-out: Ratio IC50
Field: selectivity ratio. Provide a value for each of the molecules that follow.

I have this molecule here, "C[N+](C)(CCOP(=O)([O-])OC[C@H]1O[C@@H](n2cc(F)c(=O)[nH]c2=O)C[C@@H]1OC(=O)c1ccccc1)Cc1ccccc1" , and I need its recorded selectivity ratio.
< 1

I have this molecule here, "C[N+](C)(C)CCOP(=O)([O-])OC[C@H]1O[C@@H](n2cc(F)c(=O)[nH]c2=O)C[C@@H]1OC(=O)c1ccccc1" , and I need its recorded selectivity ratio.
< 1

I have this molecule here, "O=c1[nH]c(=O)n([C@H]2C[C@H](O)[C@@H](COP(=O)(O)Oc3ccc4ncccc4c3)O2)cc1F" , and I need its recorded selectivity ratio.
< 1

This collection of values is drawn from ChEMBL document CHEMBL4251631.
